system: Giardia duodenalis BAH12, assemblage B; assay: Resazurin reduction assay, assemblage B isolate; assay type: cell-based; settings: BAH12, 24 h
Measured MLC, Assemblage B of individual entries
Expressed in µM, but write only the number.

SMI: N=C(N/N=C/c1ccc(Cl)cc1)N/N=C/c1ccc(Cl)cc1
MLC, Assemblage B (µM): 16.6

Ask | May I ask what MLC, Assemblage B has been recorded for "C/C(=N\NC(=N)N/N=C(\C)c1ccc(Cl)cc1)c1ccc(Cl)cc1.Cl" ?
Reply | 3.1

Ask | Another molecule: "Cc1ncc([N+](=O)[O-])n1CCO"
Reply | 16.6

Ask | Another molecule: "CC(C)(C)c1ccc(/C=N/NC(=N)N/N=C/c2ccc(C(C)(C)C)cc2)cc1.Cl"
Reply | 5.5
